- Tested on: RSV strain A2
- Assay: RSV HEp-2 EC50 (infectious cytopathic cell protection assay)
- Assay type: cell-based
- Condition context: human respiratory syncytial virus, HEp-2, 96 h, HEp-2 cells, RSV A2, 4 days; read-out: RSV HEp-2 EC50
Simple rule here: EC50 less than 3 µM is t, otherwise f.

Example results:
query: Lab log: compare recorded EC50 with 3 µM; is it strictly lower for C[C@H](NP(=O)(OC[C@@]1(C#N)O[C@@H](c2ccc3c(N)ncnn23)[C@H](O)[C@@H]1O)Oc1ccccc1)C(=O)OC1CCC1 (single isomer, unassigned) [Example 50] ?
result: t

query: Input Cc1oc(=O)oc1COC(=O)C1(NP(=O)(OC[C@@]2(C#N)O[C@@H](c3ccc4c(N)ncnn34)[C@H](O)[C@@H]2O)Oc2ccccc2)CCC1 (some centres unmarked) ; condition: EC50 strictly below 3 µM. Does it hold?
result: f

query: EC50 under 3 µM? Item: CCC(CC)COC(=O)[C@H](CCCCN)NP(=O)(OC[C@@]1(C#N)O[C@@H](c2ccc3c(N)ncnn23)[C@H](O)[C@@H]1O)Oc1ccccc1 (mixture of isomers)
result: f

Others:
query: Just wondering, is EC50 of C[C@H](NP(=O)(OC[C@@]1(C#N)O[C@@H](c2ccc3c(N)ncnn23)[C@H](O)[C@@H]1O)Oc1ccccc1)C(=O)O[C@H]1CCN(C)C1 (some centres unmarked) below 3 µM?
result: f

query: Determine if C[C@H](NP(=O)(OC[C@@]1(C#N)O[C@@H](c2ccc3c(N)ncnn23)[C@H](O)[C@@H]1O)Oc1ccccc1)C(=O)OC1CCC1 (some centres unmarked) [Example 118] shows EC50 strictly lower than 3 µM.
result: t
